Please go through the items and note down their Improvement in binding affinity of inhibitory peptide relative to WT.
target_under_test: T1, thermostable variant of Streptomyces mobaraensis transglutaminase (Streptomyces mobaraensis, UniProt P81453 79-407)
T1 sequence: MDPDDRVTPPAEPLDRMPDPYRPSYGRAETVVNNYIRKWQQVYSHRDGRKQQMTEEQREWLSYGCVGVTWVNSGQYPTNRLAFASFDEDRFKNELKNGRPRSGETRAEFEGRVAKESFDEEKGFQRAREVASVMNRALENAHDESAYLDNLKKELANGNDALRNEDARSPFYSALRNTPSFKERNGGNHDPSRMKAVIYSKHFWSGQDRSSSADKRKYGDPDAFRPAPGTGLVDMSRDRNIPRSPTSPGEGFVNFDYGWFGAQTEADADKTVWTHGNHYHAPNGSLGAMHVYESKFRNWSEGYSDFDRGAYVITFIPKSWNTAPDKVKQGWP
assay_method_text: cell-based or functional assay

Report Improvement in binding affinity of inhibitory peptide relative to WT for every entry below.
1. MDNGAGEETKSYAETYRLTADDVANINALNESAPAASSAGPSFRAD [pro-peptide variant P46D]
2. MDNGAGEVTKSYAETYRLTADDVANINALNESAPAASSAGPSFRAP [pro-peptide variant E8V]
3. MDNGAGEETKSYAETYRLTADDVANINALNESAPAASSAGPSFRAL [pro-peptide variant P46L]
4. MDNGAGEETKSYAETYRLTADDVANINALNESAPAASSAGPSFRAC [pro-peptide variant P46C]
5. MFNGAGEETKSYAETYRLTADDVANINALNESAPAASSAGPSFRAP [pro-peptide variant D2F]
6. MDNGAGEETKSYAETYRLTAKDVANINALNESAPAASSAGPSFRAP [pro-peptide variant D21K]
7. MDNGAGEEAKSYAETYRLTADDVANINALNESAPAASSAGPSFRAP [pro-peptide variant T9A]
8. MDNGAGEETKSYAETYRLTADDVANINALNESAPAASSAGPSFRAW [pro-peptide variant P46W]

OUTPUT:
["> 1.2 fold", "> 1.2 fold", "> 1.2 fold", "> 1.2 fold", "> 1.2 fold", "> 1.2 fold", "> 1.2 fold", "> 1.2 fold"]

For each of the binders below, note its Improvement in binding affinity of inhibitory peptide relative to WT.
1. MDNGAGEEYKSYAETYRLTADDVANINALNESAPAASSAGPSFRAP [pro-peptide variant T9Y]
2. MDNGAGEETKSYAETYRLTADDVANINALNESAPAASSAGPSFRAI [pro-peptide variant P46I]
3. MDNGAGDETKSYAETYRLTADDVANINALNESAPAASSAGPSFRAP [pro-peptide variant E7D]
4. MDNGAGEETKSYAETYRLTADDVANINALNESAPAASSAGPSFRAK [pro-peptide variant P46K]

OUTPUT:
["> 1.2 fold", "> 1.2 fold", "> 1.2 fold", "> 1.2 fold"]
